Hey, just so you know, these numbers are from patent US20060121449A1.

Tested on: polyoma virus transformed BHK21/c13 cells, line S100T1
METHOD NOTES: Collocation inhibition test: clonal growth in sparsely and densely seeded areas of a cell density gradient of S100T1 cells in soft agar (Exp 13, 17, 19-26);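 note: grades rise with clonal growth and minus or plus-minus means none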;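 note: soft agar cultures in 24-well plates with a cell density gradient in the top layer, compounds applied from DMSO stocks, clonal growth scored in sparse versus dense areas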
STUDY CONDITIONS: preliminary results, Exp 13-18, 21-26; medium concentration
Starred links: 1 amine or outer side, 2 acyl side, 3 side chain; linkers in the order of their positions; H or OH if unused. Positions of bridges follow the written chain, without caps; N, C: chain ends. Non-standard residues stand in square brackets, D forms with d. Residues, ends and D or L forms follow the SMILES beside them. Chains are numbered I, II in the order given. Actinocin(9to1) = Cc1c2oc3c(C)ccc(C(=O)[*:1])c3nc-2c(C(=O)[*:2])c(N)c1=O; NMeV = CN[C@H](C(=O)O)C(C)C; Sar = CNCC(=O)O
MEASURE: Clonal growth, L low density area of cell gradient, Medium

# MOLECULE, RECORDED MEASUREMENT
data = [
    ("COc1c(C)c2c(c(O)c1C/C=C(\\C)CCC(=O)O)C(=O)OC2 [Mycophenolic acid, reference compound]", "(+)"),
    ("O=c1[nH]cc(F)c(=O)[nH]1 [Fluorouracil, reference compound]", "+"),
    ("Cc1c2oc3c(C)ccc(C(=O)N[C@@H]4C(=O)N[C@H](C(C)C)C(=O)N5CCC[C@H]5C(=O)N(C)CC(=O)N(C)[C@@H](C(C)C)C(=O)O[C@@H]4C)c3nc-2c(C(=O)N[C@@H]2C(=O)N[C@H](C(C)C)C(=O)N3CCC[C@H]3C(=O)N(C)CC(=O)N(C)[C@@H](C(C)C)C(=O)O[C@@H]2C)c(N)c1=O [Actino-mycin D, Actinomycin D, reference compound] (I: T[dV]P[Sar][NMeV] / II: T[dV]P[Sar][NMeV]; ester I:1-I:C, II:1-II:C; linker I:N-II:N via Actinocin(9to1))", "(+)"),
    ("CC1=C(CC(=O)O)c2cc(F)ccc2/C1=C\\c1ccc([S+](C)[O-])cc1 (centres unmarked) [Sulindac, reference compound]", "++"),
    ("Nc1ccn([C@@H]2O[C@H](CO)[C@@H](O)[C@@H]2O)c(=O)n1 [Cytarabin, reference compound]", "+"),
]
